Experiment: Lipophilicity, log P of the compound
Type: physicochemical
Conditions: octanol/water
# reported logP; entries follow
Respond using a number only.

Sample answers from the record:
>>> df
                        input_smiles  numeric_readout
0             CN(C)C(=O)Nc1ccc(F)cc1             1.13
1  CN(C)C(=O)Nc1cccc([N+](=O)[O-])c1             1.33
2             CN(C)C(=O)Nc1ccc(I)cc1             2.36
3            CN(C)C(=O)Nc1ccc(Cl)cc1             1.99
4             CN(C)C(=O)Nc1cccc(F)c1             1.37
5             Cc1cccc(NC(=O)N(C)C)c1             1.46

Here is the next item to consider.
Supply recorded logP for CN(C)C(=O)Nc1ccc(O)cc1 here.
0.37

###

Experiment: Lipophilicity, log P of the compound
Format: physicochemical
Conditions: octanol/water
assay readout: logP
Form field (numeric): enter value without unit.

>>> print(df.to_string())
                 compound  assay_readout  numeric_readout
0  Cc1ccc(NC(=O)N(C)C)cc1           logP             1.41

Below: the item to evaluate.
Tell us which logP value is on record for CN(C)C(=O)Nc1ccc([N+](=O)[O-])cc1
1.43

###

Experiment: Lipophilicity, log P of the compound
Format: physicochemical
Details: octanol/water
Examples of compounds with documented logP follow.
Reply briefly: the number, and no unit.

Worked set:
In [3]: df
Out[3]:
                                   compound  numeric_readout
0                  CN(C)C(=O)Nc1cccc(C#N)c1             0.98
1                   CN(C)C(=O)Nc1ccc(Br)cc1             2.07
2             CN(C)C(=O)Nc1ccc(C(F)(F)F)cc1             2.31
3                   COc1cccc(NC(=O)N(C)C)c1             1.22
4  CN(C)C(=O)Nc1cccc(C(F)(F)F)c1 [FLUOMETURON]              2.2

Find the measured logP of CN(C)C(=O)Nc1ccc(C#N)cc1 and report it.
0.97

Please list logP recorded for the compound COc1ccc(NC(=O)N(C)C)cc1
1.02

Report logP for CN(C)C(=O)Nc1cccc(Cl)c1
2.33

Respond only with logP recorded for CC(C)c1ccc(NC(=O)N(C)C)cc1 [ISOPROTURON]
2.87
